# system_name: α4β1 integrin (Homo sapiens, UniProt P05556+P13612)
# Construct: Ramos cells fluorescently labeled with calcein; endogenous in cells; host or cells: Ramos cells
# Sequence (P13612 34-1032): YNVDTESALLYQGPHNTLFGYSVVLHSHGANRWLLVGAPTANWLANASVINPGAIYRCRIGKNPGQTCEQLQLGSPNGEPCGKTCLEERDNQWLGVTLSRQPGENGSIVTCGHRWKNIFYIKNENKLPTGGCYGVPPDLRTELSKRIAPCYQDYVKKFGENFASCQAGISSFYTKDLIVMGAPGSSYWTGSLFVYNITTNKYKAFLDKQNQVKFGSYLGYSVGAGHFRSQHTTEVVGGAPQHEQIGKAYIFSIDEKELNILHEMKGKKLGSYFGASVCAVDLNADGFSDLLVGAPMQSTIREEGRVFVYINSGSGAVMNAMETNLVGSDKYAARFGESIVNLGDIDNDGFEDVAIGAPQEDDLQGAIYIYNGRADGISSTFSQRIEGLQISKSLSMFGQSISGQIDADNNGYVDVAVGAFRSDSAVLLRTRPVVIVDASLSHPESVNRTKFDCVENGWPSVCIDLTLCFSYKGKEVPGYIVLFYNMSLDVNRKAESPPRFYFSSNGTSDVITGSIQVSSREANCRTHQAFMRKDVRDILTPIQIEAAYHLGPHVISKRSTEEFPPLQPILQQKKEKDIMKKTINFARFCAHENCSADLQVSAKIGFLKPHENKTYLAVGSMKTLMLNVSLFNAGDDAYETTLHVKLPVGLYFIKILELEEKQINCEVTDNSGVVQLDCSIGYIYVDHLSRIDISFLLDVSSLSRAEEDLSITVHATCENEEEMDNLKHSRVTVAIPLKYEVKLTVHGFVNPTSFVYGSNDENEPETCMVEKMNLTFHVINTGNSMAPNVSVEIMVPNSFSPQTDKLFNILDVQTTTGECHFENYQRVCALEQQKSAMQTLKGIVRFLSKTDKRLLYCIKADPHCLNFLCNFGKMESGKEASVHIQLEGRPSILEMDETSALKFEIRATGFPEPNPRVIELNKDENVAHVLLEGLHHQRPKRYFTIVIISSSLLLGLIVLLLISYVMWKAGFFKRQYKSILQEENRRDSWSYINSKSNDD
# Sequence (P05556 21-798): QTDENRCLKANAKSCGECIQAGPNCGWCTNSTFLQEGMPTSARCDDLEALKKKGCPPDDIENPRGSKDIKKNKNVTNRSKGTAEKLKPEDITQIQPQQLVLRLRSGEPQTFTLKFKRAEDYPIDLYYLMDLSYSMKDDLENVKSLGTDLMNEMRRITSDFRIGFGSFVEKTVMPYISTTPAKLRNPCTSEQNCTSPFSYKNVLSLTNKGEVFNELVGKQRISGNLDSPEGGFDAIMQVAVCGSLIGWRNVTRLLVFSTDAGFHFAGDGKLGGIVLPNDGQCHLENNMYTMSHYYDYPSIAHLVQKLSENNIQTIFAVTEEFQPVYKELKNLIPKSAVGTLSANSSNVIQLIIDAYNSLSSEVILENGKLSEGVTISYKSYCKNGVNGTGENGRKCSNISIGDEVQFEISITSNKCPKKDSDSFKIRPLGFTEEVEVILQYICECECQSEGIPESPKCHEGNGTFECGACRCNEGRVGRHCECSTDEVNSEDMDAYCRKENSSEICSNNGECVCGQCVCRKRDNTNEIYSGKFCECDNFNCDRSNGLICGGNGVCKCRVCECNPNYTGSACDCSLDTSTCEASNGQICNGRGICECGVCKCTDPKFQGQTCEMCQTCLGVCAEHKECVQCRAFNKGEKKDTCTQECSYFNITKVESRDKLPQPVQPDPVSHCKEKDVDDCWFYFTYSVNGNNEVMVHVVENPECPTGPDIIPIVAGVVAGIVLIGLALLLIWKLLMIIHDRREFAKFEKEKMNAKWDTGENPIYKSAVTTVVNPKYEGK
# assay_text: Inhibition of adhesion of calcein-labeled Ramos cells to CS1 (fibronectin) peptide-conjugated ovalbumin
# Type: cell-based
# test_context: Table 1; dose required to give 50% inhibition; Ramos cell adhesion to CS1-ovalbumin, 30 minutes at 37° C
test_readout: pIC50
Notebook: values listed as pIC50 are -log10 of the concentration (mol/L).

{"structure_smiles": "CSCC[C@@H](CSc1ccc(N)cc1)NC(=O)N[C@@H](CC(=O)O)c1ccc2c(c1)OCO2", "pIC50": 5.52}
{"structure_smiles": "COC(=O)NCCCC[C@H](NC(=O)N[C@@H](CC(=O)O)c1ccc2c(c1)OCO2)C(=O)NCc1nc2ccccc2[nH]1", "pIC50": 5.70}
{"structure_smiles": "O=C(O)C[C@H](NC(=O)N[C@@H](CCCCNC(=O)OCc1ccccc1)C(=O)NCCc1ccc(O)cc1)c1ccc2c(c1)OCO2", "pIC50": 5.70}

The record that follows has no pIC50 shown yet.
[Q] For CCCC[C@@H](CSc1ccc(NC(=O)Nc2ccccc2C)cc1)OC(=O)N[C@@H](CC(=O)O)c1ccc2c(c1)OCO2 , what is its reported pIC50?
[A] 6.52

---

# system_name: α4β1 integrin (Homo sapiens, UniProt P05556+P13612)
# Construct: Ramos cells fluorescently labeled with calcein; endogenous in cells; host or cells: Ramos cells
# assay_text: Inhibition of adhesion of calcein-labeled Ramos cells to CS1 (fibronectin) peptide-conjugated ovalbumin
# Format: cell-based
# test_context: Table 1; dose required to give 50% inhibition; Ramos cell adhesion to CS1-ovalbumin, 30 minutes at 37° C
One threshold, 2 µM, splits the recorded IC50 values: lower ones are true, equal or higher ones are false.

{"compound": "CSCC[C@@H](COc1ccccc1)NC(=O)N[C@@H](CC(=O)O)c1ccc2c(c1)OCO2", "class_label": "false"}
{"compound": "CSCC[C@@H](CSc1cccc(C)c1)NC(=O)N[C@@H](CC(=O)O)c1ccc2c(c1)OCO2", "class_label": "true"}
{"compound": "COc1ccc(CNC(=O)[C@@H](CC(C)C)NC(=O)NC(CC(=O)O)c2ccc3c(c2)OCO3)cc1 (stereo partly drawn)", "class_label": "false"}

[Q] Given COc1ccc(CNC(=O)[C@H](CC(C)C)NC(=O)NC(CC(=O)O)c2ccc3c(c2)OCO3)cc1 (stereo partly drawn) , is recorded IC50 strictly lower than 2 µM?
[A] true

[Q] Is the reported IC50 for CSCC[C@@H](CSc1ccccc1)NC(=O)N[C@@H](CC(=O)O)c1ccc2c(c1)OCO2 strictly below 2 µM?
[A] true

[Q] Could you please tell me whether IC50 recorded for C=CCOC[C@@H](CSc1ccccc1)NC(=O)N[C@@H](CC(=O)O)c1ccc2c(c1)OCO2 is less than 2 µM?
[A] true

[Q] For this compound, is IC50 lower than 2 µM? Cc1ccc(S(=O)(=O)NC[C@@H](CSc2ccccc2)NC(=O)N[C@@H](CC(=O)O)c2ccc3c(c2)OCO3)cc1
[A] false

[Q] hey, is IC50 for CC(C)[C@@H](CS(=O)(=O)Cc1ccccc1)NC(=O)NC(CC(=O)O)c1ccc2c(c1)OCO2 (stereo partly drawn) lower than 2 µM or not?
[A] false

[Q] Hi there! Is IC50 for CSCC[C@@H](CSc1cccc(NS(C)(=O)=O)c1)NC(=O)N[C@@H](CC(=O)O)c1ccc2c(c1)OCO2 below 2 µM, do you know?
[A] true

[Q] Please determine if C[C@@H](CSc1ccccc1)NC(=O)N[C@@H](CC(=O)O)c1ccc2c(c1)OCO2 is below 2 µM in terms of IC50.
[A] false

[Q] Dear reviewer, please state whether CSCC[C@@H](CSc1ccccc1)NC(=O)N[C@H](CSC)CC(=O)O has IC50 strictly beneath 2 µM.
[A] false

[Q] I'd appreciate it if you could check whether O=C(O)C[C@H](NC(=O)N[C@H](CSc1ccccc1)CS(=O)(=O)Cc1ccccc1)c1ccc2c(c1)OCO2 has IC50 smaller than 2 µM.
[A] true

[Q] Please state whether IC50 is below 2 µM for O=C(O)C[C@H](NC(=O)NC(CSc1ccccc1)CSc1ccccc1)c1ccc2c(c1)OCO2
[A] true

[Q] Lab note: IC50 threshold 2 µM. Does this compound come in strictly under it? O=C(O)C[C@H](NC(=O)N[C@@H](CCCCNC(=O)OCc1ccccc1)C(=O)NCc1cccs1)c1ccc2c(c1)OCO2
[A] true

[Q] Strictly below 2 µM in IC50? CC(C)C(NC(=O)N[C@@H](CC(=O)O)c1ccc2c(c1)OCO2)C(Sc1ccccc1)Sc1ccccc1 (stereo partly drawn)
[A] false

[Q] Please let me know if CCCC[C@@H](COCc1cccs1)NC(=O)N[C@@H](CC(=O)O)c1ccc2c(c1)OCO2 shows IC50 below 2 µM.
[A] true

[Q] is_below(IC50, 2 µM) for CC(C)(C)OC(=O)C[C@H](NC(=O)N[C@@H](CC(=O)O)c1ccc2c(c1)OCO2)c1ccc2c(c1)OCO2 ?
[A] false

[Q] Below 2 µM on IC50? Entry CCOC[C@@H](CSc1ccccc1)OC(=O)N[C@@H](CC(=O)O)c1ccc2c(c1)OCO2
[A] false

---

# system_name: α4β1 integrin (Homo sapiens, UniProt P05556+P13612)
# Construct: Ramos cells fluorescently labeled with calcein; endogenous in cells; host or cells: Ramos cells
# assay_text: Inhibition of adhesion of calcein-labeled Ramos cells to CS1 (fibronectin) peptide-conjugated ovalbumin
# Type: cell-based
# test_context: Table 1; dose required to give 50% inhibition; Ramos cell adhesion to CS1-ovalbumin, 30 minutes at 37° C
# From the text: The ability of compounds of the present invention to inhibit binding is described in detail hereinafter in the Examples by a procedure in which a 26-amino acid peptide containing the CS1 sequence of fibroncctin with an N-terminal Cys was coupled to maleimide activated ovalbumin. […] Following three washes with binding buffer, adherent cells were lysed and quantitated using a fluorometer. […]
test_readout: pIC50
Reminder that pIC50 means the negative base-10 logarithm of the concentration expressed in mol/L.

{"structure_smiles": "O=C(O)C[C@H](NC(=O)N[C@@H](CCCO)CSc1ccccc1)c1ccc2c(c1)OCO2", "system_name": "α4β1 integrin (Homo sapiens, UniProt P05556+P13612)", "result_number": 5.70}
{"structure_smiles": "CSCC[C@@H](CSc1ccc(NC(=O)Nc2ccccc2C)cc1)NC(=O)N[C@@H](CC(=O)O)c1ccc2c(c1)OCO2", "system_name": "α4β1 integrin (Homo sapiens, UniProt P05556+P13612)", "result_number": 9.05}
{"structure_smiles": "O=C(O)C[C@H](NC(=O)O[C@@H](COCCc1ccccc1)CSc1ccccc1)c1ccc2c(c1)OCO2", "system_name": "α4β1 integrin (Homo sapiens, UniProt P05556+P13612)", "result_number": 5.40}

Lab note: next compound to report on.
[Q] Could you share which pIC50 value was measured for O=C(O)C[C@H](NC(=O)N[C@@H](CC(=O)O)c1ccc2c(c1)OCO2)c1ccc2c(c1)OCO2 ?
[A] 5.15

---

Entries and their measured IC50 follow.
# system_name: α4β1 integrin (Homo sapiens, UniProt P05556+P13612)
# Construct: Ramos cells fluorescently labeled with calcein; endogenous in cells; host or cells: Ramos cells
# assay_text: Inhibition of adhesion of calcein-labeled Ramos cells to CS1 (fibronectin) peptide-conjugated ovalbumin
# Assay type: cell-based
# test_context: Table 2; dose required to give 50% inhibition; Ramos cell adhesion to CS1-ovalbumin, 30 minutes at 37° C

Here is how some compounds turned out for IC50.
{"structure_smiles": "CCCC[C@H](NC(=O)N[C@@H](CC(=O)O)c1ccc2c(c1)OCO2)C(=O)NCc1ccc(OCc2ccccc2C)c(OC)c1", "IC50": "20 nM"}
{"structure_smiles": "CCCC[C@H](NC(=O)N[C@@H](CC(=O)O)c1ccc2c(c1)OCO2)C(=O)Nc1ccccc1C(C)=O", "IC50": "350 nM"}

Next up:
[Q] Recorded IC50 for CCCC[C@H](NC(=O)N[C@@H](CC(=O)O)c1ccc2c(c1)OCO2)C(=O)NCc1cccs1 , please?
[A] 250 nM

---

# system_name: α4β1 integrin (Homo sapiens, UniProt P05556+P13612)
# Construct: Ramos cells fluorescently labeled with calcein; endogenous in cells; host or cells: Ramos cells
# assay_text: Inhibition of adhesion of calcein-labeled Ramos cells to CS1 (fibronectin) peptide-conjugated ovalbumin
# Format: cell-based
# test_context: Ramos, Table 1; compound at a concentration of 100 μM; read-out: % A (percent inhibition of cell adhesion)
Attribute: inhibition at 100 µM
Supply the numeric figure in %, leaving out any unit text.

Use these answered entries as a reference point.
{"compound": "O=C(O)C[C@H](NC(=O)O[C@@H](CSCc1ccccc1)CSc1ccccc1)c1ccc2c(c1)OCO2", "system_name": "α4β1 integrin (Homo sapiens, UniProt P05556+P13612)", "inhibition at 100 µM, %": 100}
{"compound": "CCCSC[C@H](NC(=O)N[C@@H](CC(=O)O)c1ccc2c(c1)OCO2)c1ccccc1", "system_name": "α4β1 integrin (Homo sapiens, UniProt P05556+P13612)", "inhibition at 100 µM, %": 100}
{"compound": "CCCC[C@@H](CSc1ccc(NC(=O)Nc2ccccc2C)cc1)OC(=O)N[C@@H](CC(=O)O)c1ccc2c(c1)OCO2", "system_name": "α4β1 integrin (Homo sapiens, UniProt P05556+P13612)", "inhibition at 100 µM, %": 100}
{"compound": "CC(C)C(NC(=O)N[C@@H](CC(=O)O)c1ccc2c(c1)OCO2)C(Sc1ccccc1)Sc1ccccc1 (stereo partly drawn)", "system_name": "α4β1 integrin (Homo sapiens, UniProt P05556+P13612)", "inhibition at 100 µM, %": 95}
{"compound": "O=C(O)C[C@H](NC(=O)NCCSc1ccccc1)c1ccc2c(c1)OCO2", "system_name": "α4β1 integrin (Homo sapiens, UniProt P05556+P13612)", "inhibition at 100 µM, %": 100}
{"compound": "O=C(O)C[C@H](NC(=O)N[C@H](CSc1ccccc1)CS(=O)(=O)Cc1ccccc1)c1ccc2c(c1)OCO2", "system_name": "α4β1 integrin (Homo sapiens, UniProt P05556+P13612)", "inhibition at 100 µM, %": 100}
{"compound": "CSCC[C@@H](CSc1ccc(NS(C)(=O)=O)cc1)NC(=O)N[C@@H](CC(=O)O)c1ccc2c(c1)OCO2", "system_name": "α4β1 integrin (Homo sapiens, UniProt P05556+P13612)", "inhibition at 100 µM, %": 100}
{"compound": "CSC[C@@H](CSc1ccccc1)NC(=O)N[C@@H](CC(=O)O)c1ccc2c(c1)OCO2", "system_name": "α4β1 integrin (Homo sapiens, UniProt P05556+P13612)", "inhibition at 100 µM, %": 100}

[Q] Entry COC(=O)NCCCC[C@@H](CS(=O)(=O)c1ccccc1)NC(=O)N[C@@H](CC(=O)O)c1ccc2c(c1)OCO2 has what inhibition at 100 µM?
[A] 20

[Q] What value of inhibition at 100 µM has been recorded for this entry: CC(C)[C@@H](CSCc1ccccc1)NC(=O)NC(CC(=O)O)c1ccc2c(c1)OCO2 (stereo partly drawn)
[A] 100
